Entry source: the supplement of paper PMC10567573

B1: TRIM63 (parent)
chain: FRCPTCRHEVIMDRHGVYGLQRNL

Variants of: B1
Assay: protein stability index of a GFP-peptide fusion (GPS, HEK-293T) (PSI 1-6); higher = more stable;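 further: lentivirally expressed fusions sorted by FACS into six bins by GFP to DsRed ratio, PSI derived from sequencing read proportions per bin multiplied by bin number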
Details: c terminus: a fixed tail appended
Given measured protein stability index, output 1 if it is greater than or equal to 2 and -1 if not.

- BIOPOLYMER SEQUENCE: "FRGPTCRHEVIMDRHGVYGLQRNL [C3G]"
  CLASSIFICATION: 1

Please indicate if the recorded protein stability index for FRCPTCHHEVIMDRHGVYGLQRNL [R7H] meets or exceeds 2. 1

Tell me whether protein stability index is at least 2 here: FRDPTCRHEVIMDRHGVYGLQRNL [C3D] -1

Form field: protein stability index at least 2? Entry: FRCPTCRHEVIMDRHGVYKLQRNL [G19K] 1
